target: HumRADA2 (Pyrococcus furiosus, UniProt O74036, D220A/DEL288-314/E219S/I169M/K221M/V202Y/Y201A); experiment: Isothermal titration calorimetry (ITC), direct binding to HumRADA2; settings: tryptophan ester series (Table 1)
measuredMetric: LE (ligand efficiency) (kcal mol−1 per heavy atom)
Answers are plain numbers, in kcal mol−1 per heavy atom.

- compound: "Cc1cccc(CCOC(=O)[C@@H](N)Cc2c[nH]c3ccccc23)c1.Cl"
  measuredMetric: "LE (ligand efficiency)"
  numericReadout: 0.26

Value sought for every listed compound: LE (ligand efficiency).
1. Cl.N[C@@H](Cc1c[nH]c2ccccc12)C(=O)OCc1ccccc1
2. Cc1ccccc1CCOC(=O)[C@@H](N)Cc1c[nH]c2ccccc12.Cl
3. Cl.N[C@@H](Cc1c[nH]c2ccccc12)C(=O)Oc1ccccc1
4. COC(=O)C(Cc1c[nH]c2ccccc12)NC(C)=O (stereo not shown)
5. Cl.N[C@@H](Cc1c[nH]c2ccccc12)C(=O)OCCCc1ccccc1
6. Cl.N[C@@H](Cc1c[nH]c2ccccc12)C(=O)OCCc1ccccc1

Result:
[0.23, 0.26, 0.24, 0.22, 0.22, 0.26]

---

target: HumRADA2 (Pyrococcus furiosus, UniProt O74036, D220A/DEL288-314/E219S/I169M/K221M/V202Y/Y201A); assay: Isothermal titration calorimetry (ITC), direct binding to HumRADA2; details: ITC thermodynamic binding profile, Table S1
Record form. Attribute: DG. Fill in for each entry.
Give bare numbers, in kcal/mol.

Take a look at these entries with their results.
- compound: "CNC(=O)C(N)Cc1c[nH]c2ccccc12 (stereo not shown)"
  DG / kcal/mol: -3.8
- compound: "O=C(NC(Cc1c[nH]c2ccccc12)C(=O)OCCc1ccccc1)c1ccccc1 (stereo not shown)"
  DG / kcal/mol: -7.6
- compound: "COC(=O)[C@@H](N)Cc1c[nH]c2ccccc12"
  DG / kcal/mol: -4.4
- compound: "Cl.N[C@@H](Cc1c[nH]c2ccccc12)C(=O)OCCc1ccccc1"
  DG / kcal/mol: -6.0

Please look at the items below and tell me DG for each one, in order.
1. CNC(=O)C(Cc1c[nH]c2ccccc12)NC(C)=O (stereo not shown)
2. O=S(=O)(NCCc1c[nH]c2ccccc12)c1cc(Br)c(Cl)s1
3. COC(=O)C(Cc1c[nH]c2ccccc12)NC(C)=O (stereo not shown)

Result:
[-4.2, -8.1, -4.2]

---

Target: HumRADA2 (Pyrococcus furiosus, UniProt O74036, D220A/DEL288-314/E219S/I169M/K221M/V202Y/Y201A)
Experiment: Isothermal titration calorimetry (ITC), direct binding to HumRADA2
Conditions: LLE=pKD−clog P; clog P calculated with Instant JChem (ChemAxon); substituted tryptamine series (Table 2)
From the text: We previously published fragment-screening results using a humanised RAD51 surrogate from Pyrococcus furiosus, which we refer to as HumRADA2 (previously referred to as MAYSAM RadA).[23] In this surrogate protein, the N-terminal domain with the oligomerisation sequence was removed to monomerise the protein and expose the FxxA binding site for screening, and six surface residues were mutated around the Phe pocket in order to humanise the protein in this region. Supplemental Experimental Procedures […]
Please go through the items and note down their LLE.
Numbers only.

Answered examples (5):
- querySmiles: "O=S(=O)(NCCc1c[nH]c2ccccc12)c1cc(Br)c(Br)s1"
  LLE: "−0.4"
- querySmiles: "O=S(=O)(NCCc1c[nH]c2ccccc12)c1ccc(Cl)s1"
  LLE: 1.3
- querySmiles: "O=S(=O)(NCCc1c[nH]c2ccccc12)c1ccc(Br)s1"
  LLE: 1.2
- querySmiles: "O=[N+]([O-])c1cccc(S(=O)(=O)NCCc2c[nH]c3ccccc23)c1"
  LLE: 1.9
- querySmiles: "Cc1noc(C)c1S(=O)(=O)NCCc1c[nH]c2ccccc12"
  LLE: 2.4

Parameters: items (list). Returns: LLE for each item.
1. O=S(=O)(NCCc1c[nH]c2ccccc12)c1cccs1
2. O=S(=O)(NCCc1c[nH]c2ccccc12)c1ccco1
3. O=S(=O)(NCCc1c[nH]c2ccccc12)c1ccccc1Br
4. O=S(=O)(NCCc1c[nH]c2ccccc12)c1cc2ccccc2s1

Result:
1. 1.9
2. 2.6
3. 1.8
4. 1.8

Query: For the molecule O=S(=O)(NCCc1c[nH]c2ccccc12)c1c(Cl)sc(Cl)c1Br , give its reported LLE.
Result: 0.6
